system under test: HCV NS3/4A protease genotype 1b (Hepatitis C virus genotype 1b)
assay explanation: HCV NS3/4A protease time-resolved fluorescence (TRF) assay, Ki against genotype 1b
Format: biochemical
protocol conditions: IC50 [gt-1b] (nM), NS3/4A genotype 1b, enzyme 0.2 nM; K+ salt
For each of the molecules below, state its IC50.
Give a bare numeral; the unit nM is implied.

For the molecule COc1ccc2nc(C3CCC3)c3c(c2c1)CC[C@]1(C[C@H]2C(=O)NC4(C(=O)NS(=O)(=O)C5(C)CC5)C[C@H]4/C=C\CCCCC[C@H](NC(=O)OC(C)(C)C)C(=O)N2C1)O3 (stereo partly shown) , the measured IC50 on HCV NS3/4A protease genotype 1b (Hepatitis C virus genotype 1b) was 0.02

For the molecule `COc1ccc2nc(C)c3c(c2c1)[C@H](F)C[C@]1(C[C@H]2C(=O)N[C@]4(C(=O)NS(=O)(=O)C5(C)CC5)C[C@H]4/C=C\CCCCC[C@H](NC(=O)OC(C)(C)C(F)(F)F)C(=O)N2C1)O3` , the measured IC50 on HCV NS3/4A protease genotype 1b (Hepatitis C virus genotype 1b) was 0.02

For the molecule `COc1ccc2nc(C3CC3)c3c(c2c1)CC[C@]1(C[C@H]2C(=O)N[C@]4(C(=O)NS(=O)(=O)C5(C)CC5)C[C@H]4/C=C\CCCCC[C@H](NC(=O)OC4(C)CCC4)C(=O)N2C1)O3` , the measured IC50 on HCV NS3/4A protease genotype 1b (Hepatitis C virus genotype 1b) was 0.014

For the molecule `COc1ccc2nc(C(C)C)c3c(c2c1)C(F)(F)C[C@]1(C[C@H]2C(=O)N[C@]4(C(=O)NS(=O)(=O)C5(C)CC5)C[C@H]4/C=C\CCCCC[C@H](NC(=O)OC(C)(C)CCS(C)(=O)=O)C(=O)N2C1)O3` , the measured IC50 on HCV NS3/4A protease genotype 1b (Hepatitis C virus genotype 1b) was 0.025

For the molecule `COCCCOc1ccc2nc(C(F)(F)F)c3c(c2c1)CC[C@]1(C[C@H]2C(=O)N[C@]4(C(=O)NS(=O)(=O)C5(C)CC5)C[C@H]4/C=C\CCCCC[C@H](NC(=O)OC(C)(C)C)C(=O)N2C1)O3` , the measured IC50 on HCV NS3/4A protease genotype 1b (Hepatitis C virus genotype 1b) was 0.011

For the molecule `COc1ccc2nc(C)c3c(c2c1)CC[C@]1(C[C@H]2C(=O)N[C@]4(C(=O)NS(=O)(=O)C5(C)CC5)C[C@H]4/C=C\CCCCC[C@H](NC(=O)OCC4(C(F)(F)F)CC4)C(=O)N2C1)O3` , the measured IC50 on HCV NS3/4A protease genotype 1b (Hepatitis C virus genotype 1b) was 0.012

For the molecule `Cc1nc2ccc(Cl)cc2c2c1O[C@]1(CC2)C[C@H]2C(=O)N[C@]3(C(=O)NS(=O)(=O)C4(C)CC4)C[C@H]3/C=C\CCCCC[C@H](NC(=O)OC3CCCC3)C(=O)N2C1` , the measured IC50 on HCV NS3/4A protease genotype 1b (Hepatitis C virus genotype 1b) was 0.009

###

system under test: HCV NS3/4A protease genotype 3a (Hepatitis C virus genotype 3a)
assay explanation: HCV NS3/4A protease time-resolved fluorescence (TRF) assay, Ki against genotype 3a
Excerpt: Measuring NS3/4A Inhibitory Activity (Ki) Against Genotype 1b, Against A156T Mutants and Against Genotype 3a One assay for measuring inhibitory activity is HCV NS3 protease time-resolved fluorescence (TRF) assay as described below and in Mao et al., Anal. Biochem. 373:1-8, 2008 and International Patent Application Publication WO 2006/102087. […]
result type: pIC50
// pIC50: -log10(molar conc.)

Short answer for `COc1cc(Cl)c2nc(C(F)(F)F)c3c(c2c1)CC[C@]1(C[C@H]2C(=O)N[C@]4(C(=O)NS(=O)(=O)C5(C)CC5)C[C@H]4/C=C\CCCCC[C@H](NC(=O)OC(C)(C)C)C(=O)N2C1)O3` : pIC50 was 8.63

Short answer for `CC(C)(C)OC(=O)N[C@H]1CCCCC/C=C\[C@@H]2C[C@@]2(C(=O)NS(=O)(=O)C2(C)CC2)NC(=O)[C@@H]2C[C@]3(CCc4c(c(C(F)(F)F)nc5ccc(OCCCN6CCOCC6)cc45)O3)CN2C1=O` : pIC50 was 10.02

Short answer for `COCCCOc1ccc2nc(C(F)(F)F)c3c(c2c1)CC[C@]1(C[C@H]2C(=O)N[C@]4(C(=O)NS(=O)(=O)C5(C)CC5)C[C@H]4/C=C\CCCCC[C@H](NC(=O)OC4(C)CCC4)C(=O)N2C1)O3` : pIC50 was 9.51

Short answer for `CCc1nc2ccc(OCCCOC)cc2c2c1O[C@]1(CC2)C[C@H]2C(=O)N[C@]3(C(=O)NS(=O)(=O)C4(C)CC4)C[C@H]3/C=C\CCCCC[C@H](NC(=O)OCC(C)C)C(=O)N2C1` : pIC50 was 9.20

Short answer for `COc1ccc2nc(C(F)(F)F)c3c(c2c1)CC[C@]1(C[C@H]2C(=O)N[C@]4(C(=O)NS(=O)(=O)C5(C)CC5)C[C@H]4/C=C\CCCCC[C@H](NC(=O)OC4(C)CCC4)C(=O)N2C1)O3` : pIC50 was 9.30

Short answer for `CCc1nc2ccc(OC)cc2c2c1O[C@]1(CC2)C[C@H]2C(=O)N[C@]3(C(=O)NS(=O)(=O)C4(C)CC4)C[C@H]3/C=C\CCCCC[C@H](NC(=O)c3cc(C)cs3)C(=O)N2C1` : pIC50 was 9.18

###

For each of the molecules below, state its pEC50.
Tested on: HCV genotype 1b replicon
assay explanation: HCV replicon assay, genotype 1b replicon EC50
Type: cell-based, Hepatitis C virus
protocol conditions: Hepatitis C virus, HCV replicon, genotype 1b; read-out: EC50 [gt-1b]
Protocol: Measuring Compound Inhibitory Potency (Genotype 1b Replicon EC50 (nM)) Measurement of inhibition by compounds was performed using the HCV replicon system. Several different replicons encoding different HCV genotypes or mutations were used. […] To initiate an assay, replicon cells were plated in the presence of a dilution series of test compound in the absence of G418. […] In some cases, luciferase activity was measured using a conventional luciferase assay. […]
// pEC50: -log10(molar conc.)

Short answer for Cc1ccc2nc(C(F)(F)F)c3c(c2c1)CC[C@]1(C[C@H]2C(=O)N[C@]4(C(=O)NS(=O)(=O)C5(C)CC5)C[C@H]4/C=C\CCCCC[C@H](NC(=O)OCC(C)C)C(=O)N2C1)O3 [Example 390] : pEC50 was 7.81

Short answer for COc1ccc2nc(C)c3c(c2c1)CC[C@]1(C[C@H]2C(=O)N[C@]4(C(=O)NS(=O)(=O)C5(C)CC5)C[C@H]4/C=C\CCCCC[C@H](NC(=O)OC(C(C)(C)C)C(F)(F)F)C(=O)N2C1)O3 (stereo partly drawn) [Example 366] : pEC50 was 8.19

Short answer for Cc1nc2cc(F)c(F)cc2c2c1O[C@]1(CC2)C[C@H]2C(=O)N[C@]3(C(=O)NS(=O)(=O)C4(C)CC4)C[C@H]3/C=C\CCCCC[C@H](NC(=O)OC(C)(C)C(F)(F)F)C(=O)N2C1 [Example 381] : pEC50 was 8.17

###

system under test: HCV NS3/4A protease genotype 1b (Hepatitis C virus genotype 1b, UniProt P26663)
assay explanation: HCV NS3/4A protease time-resolved fluorescence (TRF) assay, Ki against genotype 1b
Assay type: biochemical
protocol conditions: IC50 [gt-1b] (nM), NS3/4A genotype 1b, enzyme 0.2 nM
Binarize IC50 at 0.02 nM; below is 1, at or above is 0.

Lab note: IC50 threshold 0.02 nM. Does this compound come in strictly under it? Cc1nc2c(F)cccc2c2c1O[C@]1(CC2)C[C@H]2C(=O)NC3(C(=O)NS(=O)(=O)C4(C)CC4)C[C@H]3/C=C\CCCCC[C@H](NC(=O)OC(C)(C)C)C(=O)N2C1 (stereo partly drawn)
1

Lab note: IC50 threshold 0.02 nM. Does this compound come in strictly under it? `CC1(OC(=O)N[C@H]2CCCCC/C=C\[C@@H]3C[C@@]3(C(=O)NS(=O)(=O)C3(C)CC3)NC(=O)[C@@H]3C[C@]4(CCc5c(c(C6CC6)nc6c(F)cccc56)O4)CN3C2=O)CCCCC1`
0

Lab note: IC50 threshold 0.02 nM. Does this compound come in strictly under it? `Cc1nc2ccccc2c2c1O[C@]1(CC2)C[C@H]2C(=O)N[C@]3(C(=O)NS(=O)(=O)C4(C)CC4)C[C@H]3/C=C\CCCCC[C@H](Nc3cccc(F)c3)C(=O)N2C1`
0

Lab note: IC50 threshold 0.02 nM. Does this compound come in strictly under it? `CCOC(=O)N[C@H]1CCCCC/C=C\[C@@H]2C[C@@]2(C(=O)NS(=O)(=O)C2(C)CC2)NC(=O)[C@@H]2C[C@]3(CCc4c(c(C)nc5ccccc45)O3)CN2C1=O`
1

Lab note: IC50 threshold 0.02 nM. Does this compound come in strictly under it? `COc1ccc2nc(C(C)C)c3c(c2c1)CC[C@]1(C[C@H]2C(=O)N[C@]4(C(=O)NS(=O)(=O)C5(C)CC5)C[C@H]4/C=C\CCCCC[C@H](NC(=O)OCC(C)C)C(=O)N2C1)O3`
1

Lab note: IC50 threshold 0.02 nM. Does this compound come in strictly under it? `Cc1nc2ccccc2c2c1O[C@]1(CC2)C[C@H]2C(=O)N[C@]3(C(=O)NS(=O)(=O)C4(C)CC4)C[C@H]3/C=C\CCCCC[C@H](NC(=O)OC(C)(C)C)C(=O)N2C1`
1

Lab note: IC50 threshold 0.02 nM. Does this compound come in strictly under it? `CC(C)(C)OC(=O)N[C@H]1CCCCC/C=C\[C@@H]2C[C@@]2(C(=O)NS(=O)(=O)C2(C)CC2)NC(=O)[C@@H]2C[C@]3(CCc4c(ccc5ccccc45)O3)CN2C1=O`
0

Lab note: IC50 threshold 0.02 nM. Does this compound come in strictly under it? `COc1ccc2nc(C(C)C)c3c(c2c1)CC[C@]1(C[C@H]2C(=O)N[C@]4(C(=O)NS(=O)(=O)C5(C)CC5)C[C@H]4/C=C\CCCCC[C@H](NC(=O)OC(C)(C)C)C(=O)N2C1)O3`
1

Lab note: IC50 threshold 0.02 nM. Does this compound come in strictly under it? `COc1ccc2nc(C3CC3)c3c(c2c1)C(F)(F)C[C@]1(C[C@H]2C(=O)N[C@]4(C(=O)NS(=O)(=O)C5(C)CC5)C[C@H]4/C=C\CCCCC[C@H](NC(=O)O[C@@H](C)C(C)C)C(=O)N2C1)O3`
0
